Protocol Details: Solubility of lankacidin C in aqueous cyclodextrin solution, shaken at 5° C. for 2 hours (Example 1)
Format: physicochemical
Measurement Conditions: water, γ-CD, CD 0 Mol/l
Description: Powdery lankacidin C was added to an aqueous solution of cyclodextrin (hereinafter referred to as "CD") to have 4 mg/ml of the lankacidin C contained. After the mixture was stirred with a mixer, it was shaken at 5° C. for 2 hours, and passed through filter paper. The absorbancy of the filtrate was measured at 227-229 nm to determine concentration of the lankacidin C.
Property Measured: solubility at 2 h (µg/mL)
Kindly provide the numeric value in µg/mL only, without the unit symbol.

response.value for CC(=O)C(=O)NC1C=C(C)C=CC(O)CC=C(C)C=CC(O)CC2OC(=O)C1(C)C(=O)C2C (stereo not shown) (field: solubility at 2 h) = 260

====

Protocol Details: Solubility of C8-P and C14-P in CD solution, shaken one hour (Example 2)
Assay type: physicochemical
Measurement Conditions: aqueous β-cd solution, β-CD 10^-3 Mol/l
Property Measured: solubility at 1 h (µg/mL)
Kindly provide the numeric value in µg/mL only, without the unit symbol.

INSERT INTO assay_data (molecule, readout_value) VALUES
  ('CCC(=O)OC1C=CC(C)=CC(NC(=O)C(C)=O)C2(C)C(=O)OC(CC(O)C=CC(C)=CC1)C(C)C2=O (centres unmarked) [C8-P, lankacidin C 8-propionate]', 328);

response.value for CCC(=O)OC1C=CC(C)=CCC(O)C=CC(C)=CC(NC(=O)C(C)=O)C2(C)C(=O)OC(C1)C(C)C2=O (centres unmarked) [C14-P, lankacidin C 14-propionate] (field: solubility at 1 h) = 67

====

Protocol Details: Solubility of C8-P and C14-P in CD solution, shaken one hour (Example 2)
Type: physicochemical
Measurement Conditions: water, β-CD, CD 0 Mol/l
Property Measured: solubility at 1 h
The reply must contain the numeric value and, after it, the unit.

INSERT INTO assay_data (molecule, readout_value) VALUES
  ('CCC(=O)OC1C=CC(C)=CC(NC(=O)C(C)=O)C2(C)C(=O)OC(CC(O)C=CC(C)=CC1)C(C)C2=O (centres unmarked) [C8-P, lankacidin C 8-propionate]', '18 µg/mL');

response.value for CCC(=O)OC1C=CC(C)=CCC(O)C=CC(C)=CC(NC(=O)C(C)=O)C2(C)C(=O)OC(C1)C(C)C2=O (centres unmarked) [C14-P, lankacidin C 14-propionate] (field: solubility at 1 h) = 19 µg/mL

====

Protocol Details: Solubility of lankacidin-group in β-CD solution (10^-2 Mol/l), shaken 30 minutes to one hour (Example 4)
Type: physicochemical
Measurement Conditions: β-CD 10^-2 Mol/l vs water
Procedure: Powdery lankacidin C was added to an aqueous solution of cyclodextrin (hereinafter referred to as "CD") to have 4 mg/ml of the lankacidin C contained. […] The absorbancy of the filtrate was measured at 227-229 nm to determine concentration of the lankacidin C. The solubility of lankacidin-group in a solution of β-CD (10^-2 Mol/l) were measured in the same manner as that of Example 1 except that the shaking was continued for 30 minutes to one hour.
// values below are reported ratio: Solubility in a 10^-2 Mol/l solution of CD/solubility in water
Lab note: write the figure by itself, no unit.

Take a look at these entries with their results.
INSERT INTO results (molecule, readout_value) VALUES
  ('CC(=O)OC1C=CC(C)=CC(NC(=O)C(C)O)C2(C)C(=O)OC(CC(OC(C)=O)C=CC(C)=CC1)C(C)C2=O (stereo not drawn) [Lankacidinol 8,14-diacetate]', 4.05),
  ('CCCC(=O)OC1C=CC(C)=CCC(O)C=CC(C)=CC(NC(=O)C(C)=O)C2(C)C(=O)OC(C1)C(C)C2=O (stereo not drawn) [Lankacidin C 14-butylate]', 6.94),
  ('CC(=O)OC1C=CC(C)=CCC(O)C=CC(C)=CC(NC(=O)C(C)O)C2(C)C(=O)OC(C1)C(C)C2=O (stereo not drawn)', 18.1),
  ('CC(=O)OC1C=CC(C)=CC(NC(=O)C(C)=O)C2(C)C(=O)OC(CC(OC(C)=O)C=CC(C)=CC1)C(C)C2=O (stereo not drawn) [Lankacidin C 8,14-diacetate, lankacidin C 8,14-diacetate]', 42.0),
  ('CC(=O)OC1C=CC(C)=CC(NC(=O)C(C)=O)C2(C)C(=O)OC(CC(O)C=CC(C)=CC1)C(C)C2=O (stereo not drawn) [Lankacidin C 8-acetate, lankacidin C 8-acetate]', 37.3);

Continue with the molecule presented below.
response.value for CCCC(=O)OC1C=CC(C)=CC(NC(=O)C(C)=O)C2(C)C(=O)OC(CC(O)C=CC(C)=CC1)C(C)C2=O (stereo not drawn) [Lankacidin C 8-butylate] (field: ratio: Solubility in a 10^-2 Mol/l solution of CD/solubility in water) = 44.9

====

Protocol Details: Solubility of C8-P and C14-P in CD solution, shaken one hour (Example 2)
Type: physicochemical
Measurement Conditions: aqueous γ-cd solution, γ-CD 10^-3 Mol/l
Property Measured: solubility at 1 h (µg/mL)
Kindly provide the numeric value in µg/mL only, without the unit symbol.

INSERT INTO measurements (compound, property_measured, readout_value) VALUES
  ('CCC(=O)OC1C=CC(C)=CC(NC(=O)C(C)=O)C2(C)C(=O)OC(CC(O)C=CC(C)=CC1)C(C)C2=O (centres unmarked) [C8-P, lankacidin C 8-propionate]', 'solubility at 1 h', 249);

Continue with the compound presented below.
response.value for CCC(=O)OC1C=CC(C)=CCC(O)C=CC(C)=CC(NC(=O)C(C)=O)C2(C)C(=O)OC(C1)C(C)C2=O (centres unmarked) [C14-P, lankacidin C 14-propionate] (field: solubility at 1 h) = 114

====

Protocol Details: Solubility of inclusion compound in water
Assay type: physicochemical
Measurement Conditions: m/100 cyclodextrin solution; M/100 cyclodextrin; (3) cyclodextrin 11.3 mg/ml; read-out: (2) Solubility of lankacidin-group in M/100 cyclodextrin solution
Property Measured: solubility (µg/mL)
Kindly provide the numeric value in µg/mL only, without the unit symbol.

Take a look at these entries with their results.
INSERT INTO measurements (compound, reading_unit, readout_value) VALUES
  ('CC(=O)OC1C=CC(C)=CCC(O)C=CC(C)=CC(NC(=O)C(C)=O)C2(C)C(=O)OC(C1)C(C)C2=O (stereo not drawn)', 'µg/mL', 2690),
  ('CC(=O)C(=O)NC1C=C(C)C=CC(O)CC=C(C)C=CC(O)CC2OC(=O)C1(C)C(=O)C2C (stereo not drawn)', 'µg/mL', 3540);

Continue with the compound presented below.
response.value for CC1=CCC(O)C=CC(C)=CC(NC(=O)C(C)O)C2(C)C(=O)OC(CC(O)C=C1)C(C)C2=O (stereo not drawn) (field: solubility) = 3780

====

Protocol Details: Solubility of C8-P and C14-P in CD solution, shaken one hour (Example 2)
Format: physicochemical
Measurement Conditions: water, γ-CD, CD 0 Mol/l
Property Measured: solubility at 1 h (µg/mL)
Kindly provide the numeric value in µg/mL only, without the unit symbol.

response.value for CCC(=O)OC1C=CC(C)=CC(NC(=O)C(C)=O)C2(C)C(=O)OC(CC(O)C=CC(C)=CC1)C(C)C2=O (centres unmarked) [C8-P, lankacidin C 8-propionate] (field: solubility at 1 h) = 19

response.value for CCC(=O)OC1C=CC(C)=CCC(O)C=CC(C)=CC(NC(=O)C(C)=O)C2(C)C(=O)OC(C1)C(C)C2=O (centres unmarked) [C14-P, lankacidin C 14-propionate] (field: solubility at 1 h) = 19

====

Protocol Details: Solubility in β-CD solution, shaken 16 hours (Example 3)
Assay type: physicochemical
Measurement Conditions: aqueous β-cd solution, β-CD 5 × 10^-4 Mol/l
Experimental: Powdery lankacidin C was added to an aqueous solution of cyclodextrin (hereinafter referred to as "CD") to have 4 mg/ml of the lankacidin C contained. […] The absorbancy of the filtrate was measured at 227-229 nm to determine concentration of the lankacidin C. The solubilities of lankacidin A, lankacidin C and lankacidinol in a β-CD solution were measured in the same manner as that of Example 1 except that the shaking was continued for 16 hours.
Property Measured: solubility at 16 h (µg/mL)
Kindly provide the numeric value in µg/mL only, without the unit symbol.

INSERT INTO measurements (compound, property_measured, reading_unit, readout_value) VALUES
  ('CC(=O)OC1C=CC(C)=CCC(O)C=CC(C)=CC(NC(=O)C(C)=O)C2(C)C(=O)OC(C1)C(C)C2=O (centres unmarked) [Lankacidin A, lankacidin A]', 'solubility at 16 h', 'µg/mL', 265);

response.value for CC(=O)C(=O)NC1C=C(C)C=CC(O)CC=C(C)C=CC(O)CC2OC(=O)C1(C)C(=O)C2C (centres unmarked) [Lankacidin C, lankacidin C] (field: solubility at 16 h) = 409
